Where do the numbers come from? From the supplement of paper PMC8882468.

# Test system: HCI-012 (organoid from a breast cancer xenograft)
# Test description: CTG-3D luminescence at 96 h relative to day-0 seeding control (ratio to day 0); higher = more growth / less cytotoxicity; PDxO 3D drug screen, 96 h, CTG-3D normalised to day-0 seeding control.
# Condition details: 100 µM; days in culture: 143
Reported property: CTG-3D luminescence at 96 h
The response must contain the number and no unit.

Tell me the measured CTG-3D luminescence at 96 h of `CCN(c1cc(C#CCN2CCOCC2)cc(C(=O)NCc2c(C)cc(C)[nH]c2=O)c1C)[C@H]1CC[C@H](N(C)CCOC)CC1` , please.
0.606

Also CN(Cc1cnc2nc(N)nc(N)c2n1)c1ccc(C(=O)N[C@@H](CCC(=O)O)C(=O)O)cc1 [methotrexate] ?
1.51

Also `O=C(/C=C/c1cccnc1)NCCCCC1CCN(C(=O)c2ccccc2)CC1` ?
0.175

Also `COc1cc2c(Oc3ccc4[nH]c(C)cc4c3F)ncnc2cc1OCCCN1CCCC1` ?
-0.00161

Also `NC1(C(=O)N[C@@H](CCO)c2ccc(Cl)cc2)CCN(c2nc[nH]c3nccc2-3)CC1` ?
0.0899

Also `O=C(O)C1(C(=O)O)CCC1.[NH2-].[NH2-].[Pt+2]` ?
0.161

Also `NC(=O)Nc1cc(-c2cccc(F)c2)sc1C(=O)N[C@H]1CCCNC1` ?
0.000673

Also `CC(C)(C(=O)NCC(F)(F)C(F)(F)F)C(=O)N[C@@H]1C(=O)Nc2ccccc2-c2ccccc21` ?
1.37
